tested on: Escherichia coli TOP10; assay: shrunken log2 fold change of peptide-encoding DNA abundance (4.5 h post-induction vs induction); higher = less antimicrobial activity (less host growth inhibition); conditions: time post-induction: 4.5 h; library: site-saturation at positions 5, 18, 19, 20;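 also: peptides expressed intracellularly from a pBAD plasmid library in pooled LB shake-flask culture, induced with 0.3% L-arabinose, DNA abundance read by NGS, three biological replicates, DESeq2 with apeglm shrinkage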
Kindly return satisfied if reported shrunken log2 fold change is no lower than 0.0002; return not satisfied if it is lower.

State whether the measured shrunken log2 fold change reaches 0.0002, counting equality as reaching it, for `RRIRQRPPRLPRPRPRPVQWPRP`
not satisfied

State whether the measured shrunken log2 fold change reaches 0.0002, counting equality as reaching it, for `RRIRFRPPRLPRPRPRPIVNPRP`
satisfied

State whether the measured shrunken log2 fold change reaches 0.0002, counting equality as reaching it, for `RRIRMRPPRLPRPRPRPYTWPRP`
not satisfied

State whether the measured shrunken log2 fold change reaches 0.0002, counting equality as reaching it, for `RRIRWRPPRLPRPRPRPREFPRP`
satisfied

State whether the measured shrunken log2 fold change reaches 0.0002, counting equality as reaching it, for `RRIRPRPPRLPRPRPRPMWMPRP`
satisfied

State whether the measured shrunken log2 fold change reaches 0.0002, counting equality as reaching it, for `RRIRCRPPRLPRPRPRPRMTPRP`
satisfied

State whether the measured shrunken log2 fold change reaches 0.0002, counting equality as reaching it, for `RRIRFRPPRLPRPRPRPNEVPRP`
not satisfied

State whether the measured shrunken log2 fold change reaches 0.0002, counting equality as reaching it, for `RRIRERPPRLPRPRPRPMPPPRP`
satisfied

State whether the measured shrunken log2 fold change reaches 0.0002, counting equality as reaching it, for `RRIRYRPPRLPRPRPRPKFYPRP`
satisfied

State whether the measured shrunken log2 fold change reaches 0.0002, counting equality as reaching it, for `RRIRKRPPRLPRPRPRPYAQPRP`
not satisfied

State whether the measured shrunken log2 fold change reaches 0.0002, counting equality as reaching it, for `RRIRYRPPRLPRPRPRPWRSPRP`
satisfied

State whether the measured shrunken log2 fold change reaches 0.0002, counting equality as reaching it, for `RRIRDRPPRLPRPRPRPIKTPRP`
satisfied

State whether the measured shrunken log2 fold change reaches 0.0002, counting equality as reaching it, for `RRIRFRPPRLPRPRPRPIAKPRP`
not satisfied

State whether the measured shrunken log2 fold change reaches 0.0002, counting equality as reaching it, for `RRIRKRPPRLPRPRPRPLDIPRP`
not satisfied

State whether the measured shrunken log2 fold change reaches 0.0002, counting equality as reaching it, for `RRIRQRPPRLPRPRPRPYSCPRP`
satisfied
